Tested on: FXR:RXRa (NR concentration 270 nM, RXRa partner concentration 90 nM)
procedure-text: PBM binding z-score (relative to random genomic background probes); higher = stronger binding; sequences stand for … in GC…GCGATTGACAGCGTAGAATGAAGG
Binary classification by PBM binding z-score, with 0.4 as an inclusive lower bound for Criterion met; all other cases are Criterion not met.

Solved cases below.
[[record]]
sequence_content = "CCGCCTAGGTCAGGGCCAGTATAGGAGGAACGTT"
system = "FXR:RXRa (NR concentration 270 nM, RXRa partner concentration 90 nM)"
label_class = "Criterion met"

[[record]]
sequence_content = "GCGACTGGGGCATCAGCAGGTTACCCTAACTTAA"
system = "FXR:RXRa (NR concentration 270 nM, RXRa partner concentration 90 nM)"
label_class = "Criterion not met"

[[record]]
sequence_content = "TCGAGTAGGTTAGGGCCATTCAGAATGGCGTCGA"
system = "FXR:RXRa (NR concentration 270 nM, RXRa partner concentration 90 nM)"
label_class = "Criterion not met"

[[record]]
sequence_content = "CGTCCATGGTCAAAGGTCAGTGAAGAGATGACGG"
system = "FXR:RXRa (NR concentration 270 nM, RXRa partner concentration 90 nM)"
label_class = "Criterion met"

[[record]]
sequence_content = "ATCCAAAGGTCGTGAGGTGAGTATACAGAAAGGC"
system = "FXR:RXRa (NR concentration 270 nM, RXRa partner concentration 90 nM)"
label_class = "Criterion met"

[[record]]
sequence_content = "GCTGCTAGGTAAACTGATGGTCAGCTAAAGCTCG"
system = "FXR:RXRa (NR concentration 270 nM, RXRa partner concentration 90 nM)"
label_class = "Criterion not met"


Prompt line: Does the sequence `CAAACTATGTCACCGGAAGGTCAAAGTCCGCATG` have recorded PBM binding z-score that is 0.4 or more?
Response line: Criterion met

Prompt line: Now consider `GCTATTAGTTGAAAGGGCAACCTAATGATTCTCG` and answer again.
Response line: Criterion met

Prompt line: Now consider `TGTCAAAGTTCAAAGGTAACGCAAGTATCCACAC` and answer again.
Response line: Criterion met

Prompt line: Now consider `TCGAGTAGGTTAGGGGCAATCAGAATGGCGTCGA` and answer again.
Response line: Criterion not met

Prompt line: Now consider `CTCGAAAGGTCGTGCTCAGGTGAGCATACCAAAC` and answer again.
Response line: Criterion met

Prompt line: Now consider `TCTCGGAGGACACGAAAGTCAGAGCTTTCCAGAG` and answer again.
Response line: Criterion met

Prompt line: Now consider `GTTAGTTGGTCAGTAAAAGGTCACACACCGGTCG` and answer again.
Response line: Criterion met

Prompt line: Now consider `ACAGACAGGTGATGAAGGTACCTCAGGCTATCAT` and answer again.
Response line: Criterion not met

Prompt line: Now consider `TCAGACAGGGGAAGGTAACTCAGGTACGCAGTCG` and answer again.
Response line: Criterion met

Prompt line: Now consider `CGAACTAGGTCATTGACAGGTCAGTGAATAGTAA` and answer again.
Response line: Criterion met

Prompt line: Now consider `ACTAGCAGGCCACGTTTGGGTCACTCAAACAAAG` and answer again.
Response line: Criterion not met

Prompt line: Now consider `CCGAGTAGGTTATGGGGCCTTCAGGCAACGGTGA` and answer again.
Response line: Criterion not met
